Tested on: Escherichia coli TOP10;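 also: peptides expressed intracellularly from a pBAD plasmid library in pooled LB shake-flask culture, induced with 0.3% L-arabinose, DNA abundance read by NGS, three biological replicates, DESeq2 with apeglm shrinkage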
testDescription: shrunken log2 fold change of peptide-encoding DNA abundance (4.5 h post-induction vs induction); higher = less antimicrobial activity (less host growth inhibition)
conditionsUsed: time post-induction: 4.5 h; library: site-saturation at positions 5, 18, 19, 20
sequences and their reported shrunken log2 fold change
readoutType: shrunken log2 fold change

| seq | readoutType | numericValue |
| --- | --- | --- |
| RRIRIRPPRLPRPRPRPKVIPRP | shrunken log2 fold change | 0.0457 |
| RRIRMRPPRLPRPRPRPTGLPRP | shrunken log2 fold change | 0.961 |
| RRIRERPPRLPRPRPRPIANPRP | shrunken log2 fold change | 0.158 |
| RRIRERPPRLPRPRPRPDGNPRP | shrunken log2 fold change | -0.032 |
| RRIRLRPPRLPRPRPRPTWVPRP | shrunken log2 fold change | 0.0425 |
| RRIRVRPPRLPRPRPRPVFLPRP | shrunken log2 fold change | -0.339 |
| RRIRDRPPRLPRPRPRPQWSPRP | shrunken log2 fold change | -0.0128 |
| RRIRHRPPRLPRPRPRPPCNPRP | shrunken log2 fold change | -0.221 |
| RRIRTRPPRLPRPRPRPDDCPRP | shrunken log2 fold change | -0.0459 |
| RRIRSRPPRLPRPRPRPCMRPRP | shrunken log2 fold change | 0.0526 |
| RRIRSRPPRLPRPRPRPVNFPRP | shrunken log2 fold change | -0.262 |
| RRIRCRPPRLPRPRPRPHGSPRP | shrunken log2 fold change | -0.0281 |
| RRIRGRPPRLPRPRPRPDGWPRP | shrunken log2 fold change | 1.34 |
| RRIRPRPPRLPRPRPRPYVAPRP | shrunken log2 fold change | -0.465 |
| RRIRYRPPRLPRPRPRPINSPRP | shrunken log2 fold change | -0.184 |
| RRIRLRPPRLPRPRPRPLVEPRP | shrunken log2 fold change | 0.222 |
| RRIRCRPPRLPRPRPRPEEWPRP | shrunken log2 fold change | 0.0214 |
| RRIRLRPPRLPRPRPRPPLMPRP | shrunken log2 fold change | 0.313 |
| RRIRTRPPRLPRPRPRPKVLPRP | shrunken log2 fold change | -0.015 |
| RRIRDRPPRLPRPRPRPVFFPRP | shrunken log2 fold change | 0.208 |
| RRIRCRPPRLPRPRPRPQFSPRP | shrunken log2 fold change | -0.145 |
| RRIRCRPPRLPRPRPRPNTTPRP | shrunken log2 fold change | -0.291 |
| RRIRGRPPRLPRPRPRPGKEPRP | shrunken log2 fold change | 0.225 |
| RRIRHRPPRLPRPRPRPHWGPRP | shrunken log2 fold change | -0.123 |
| RRIRRRPPRLPRPRPRPVRGPRP | shrunken log2 fold change | 0.805 |
| RRIRSRPPRLPRPRPRPHQPPRP | shrunken log2 fold change | -0.00655 |
| RRIRVRPPRLPRPRPRPGEEPRP | shrunken log2 fold change | 0.00621 |
| RRIRYRPPRLPRPRPRPVWRPRP | shrunken log2 fold change | 0.119 |
| RRIRARPPRLPRPRPRPFHPPRP | shrunken log2 fold change | -0.178 |
| RRIRDRPPRLPRPRPRPYVFPRP | shrunken log2 fold change | -0.18 |
| RRIRNRPPRLPRPRPRPFFHPRP | shrunken log2 fold change | -0.446 |
| RRIRLRPPRLPRPRPRPYMDPRP | shrunken log2 fold change | -0.0681 |
| RRIRRRPPRLPRPRPRPIHPPRP | shrunken log2 fold change | -0.261 |
| RRIRKRPPRLPRPRPRPPGQPRP | shrunken log2 fold change | 1.25 |
| RRIRYRPPRLPRPRPRPPTLPRP | shrunken log2 fold change | -0.274 |
| RRIRCRPPRLPRPRPRPTHPPRP | shrunken log2 fold change | 0.164 |
| RRIRNRPPRLPRPRPRPPCSPRP | shrunken log2 fold change | -0.327 |
| RRIRYRPPRLPRPRPRPKAEPRP | shrunken log2 fold change | 0.0881 |
| RRIRPRPPRLPRPRPRPHPSPRP | shrunken log2 fold change | 0.000134 |
| RRIRIRPPRLPRPRPRPQTGPRP | shrunken log2 fold change | -0.139 |
| RRIRTRPPRLPRPRPRPYYNPRP | shrunken log2 fold change | -0.719 |
| RRIRQRPPRLPRPRPRPMTAPRP | shrunken log2 fold change | 0.291 |
| RRIRWRPPRLPRPRPRPNQVPRP | shrunken log2 fold change | 0.0796 |
| RRIRGRPPRLPRPRPRPSSGPRP | shrunken log2 fold change | 0.0321 |
| RRIRCRPPRLPRPRPRPHVLPRP | shrunken log2 fold change | -0.172 |
| RRIRIRPPRLPRPRPRPNDAPRP | shrunken log2 fold change | -0.182 |
| RRIRDRPPRLPRPRPRPLTFPRP | shrunken log2 fold change | -0.212 |
| RRIRPRPPRLPRPRPRPETFPRP | shrunken log2 fold change | 0.176 |
| RRIRERPPRLPRPRPRPEMGPRP | shrunken log2 fold change | -0.116 |
| RRIRYRPPRLPRPRPRPFEDPRP | shrunken log2 fold change | -0.057 |
| RRIRKRPPRLPRPRPRPLTAPRP | shrunken log2 fold change | 0.403 |
| RRIRQRPPRLPRPRPRPQITPRP | shrunken log2 fold change | -0.337 |
| RRIRVRPPRLPRPRPRPDAEPRP | shrunken log2 fold change | 0.431 |
| RRIRMRPPRLPRPRPRPCYLPRP | shrunken log2 fold change | 0.0715 |
| RRIRNRPPRLPRPRPRPVSVPRP | shrunken log2 fold change | -0.143 |
| RRIRWRPPRLPRPRPRPRRFPRP | shrunken log2 fold change | 0.269 |
| RRIRWRPPRLPRPRPRPKPCPRP | shrunken log2 fold change | 0.229 |
| RRIRKRPPRLPRPRPRPRELPRP | shrunken log2 fold change | 0.753 |
| RRIRSRPPRLPRPRPRPYEYPRP | shrunken log2 fold change | -0.55 |
| RRIRTRPPRLPRPRPRPHIFPRP | shrunken log2 fold change | 2.13 |
| RRIRQRPPRLPRPRPRPHKPPRP | shrunken log2 fold change | -0.0272 |
| RRIRWRPPRLPRPRPRPPTEPRP | shrunken log2 fold change | 0.597 |
| RRIRARPPRLPRPRPRPAIDPRP | shrunken log2 fold change | 0.387 |
